Taken from patent US20250027068.

assayed_target: pooled human IgG
endpoint_name: Enzyme Activity Endpoint Assay (purified): IgG (ng/µL)

>  <protein>
PRT-289 (protein) MVTSVWTKGVTPPADFTQGEDVFHAPYVANQGWYDITKTFNGKDDLLCGAATAGNMLHWWFDQNKEYIEAYLKKHPEKQKIMFGDQELLDVRKAINTKGSQKNSELFNYFRDKAFPNLSARRLGVMPDLVLDMFINGYYLNVTKTQTTDVNRTYQEKDKRGGIFDAVFTRGDQSKLLTSRHDFKEKGLKEISDLIKQELTEGKALGLSHTYANVGINHVINLWGADFDSDGNLKAIYVTDSDSNASIGMKKYFVGVNSSGKVAISAKEIKEDNIGAQVLGLFTLSTGQDIWNQTN

>  <readout_value>
90

$$$$
>  <protein>
PRT-236 (protein) MEVVEVWPYGQNPNGKTEILSQTEDSESLQRLRDIEDFQAEKKMQNVVYTKWLDGVDVDDHDFRKIVDGNIAYYATPLLNGRGFYDINKDFNRDSDKCAAAVAANMFHYWLDINRDNVDRFLRQNPEKHGIIELPDGQLKLSDFLNTYESDHGYRDKSKLFDFISNNFNGPVWTDKLLDNYINGYAYNYKYGRTIEDPTKNTSKINFFKEVFNEKILTNNHSIRNQNEFSVLLSEALYTGKAIGLSYGPAGLRHSLGHIISVWGADLDADGNVVAIYVTDSDDKKLTIGDERVGLKRYKISTDDENRLRLTAYEETHNTGGQIRGLWTLDTGKYAWADYFDKTEQTGTDQAEQLEHHHHHH

>  <readout_value>
594

$$$$
>  <protein>
PRT-238 (protein) MEVVEVWPYGQNPNGKTEILSQTEDSESLQRLRDIEDFQAEKKMQNVVYTKWLDGVDVKDHDFRKIVDGGIAYYATPLLNGRGFYDINKDFNRDSDLCAAAVAANMFHYWLDINRDNVDRFLRQNPEKHGIIELPDGQLKLSDFLNTYESDHGYRDKSKLFDYISNNFNGPVWTDKLLDNYINGYGYNYKYGRTIEDPTKNTSKINFFKEVFNEKILTNNHSIRNQNEFSVLLSEALYTGKAIGLSYGPAGLRHSLGHIISVWGADLDADGNVVAIYVTDSDDKKLTIGDERVGLKRYKISTDDENRLRLTAYEETHNTGGQIRGLWTLDTGKYAWADYFDKTEQTGTDQAEQLEHHHHHH

>  <readout_value>
1610

$$$$
>  <protein>
PRT-57 (protein) MANQEIRYSEVTPYHVTSVWTKGVTPPANFTQGEDVFHAPYVANQGWYDINKTFNGKDDLLCGAATAGNMLHWWFDQNKDYIDRYLEEHPEKQKINFNGEQMFDVKEAIDTKNHQLDSKLFEYFKEKAFPYLSTKHLGVFPDLVIDMFINGYRLSLTNHGPTPVKEGSKDPRGGFFDAVFGRGDQSKLLTSRHDFKEKNLKEISDLIKKELTEGKALGLSHTYANVRINHVINLWGADFDSNGNLKAIYVTDSDSNASIGMKKYFVGVNSAGKVAISAKEIKEDNIGAQVLGLFTLSTGQDSWNQTN

>  <readout_value>
44

$$$$
>  <protein>
PRT-298 (protein) MVTSVWTKGVTPPTDFIKGEDVFHAPYKAGQGWYDITKTFNGKDDLLCGAATAGNMLHWWFDQNKEYIEAYLKKHPEKQKIMFGDQELLDVRKAINTKGSQKNSELFNYFRDKAFPNLSARRLGVMPDLVLDMFINGYYLNVTKTQTTDVNRTYQEKDKRGGIFDAVFTRGDQSKLLTSRHDFKEKGLKEISDLIKQELTEGKALGLSHTYANVGINHVINLWGADFDSDGNLKAIYVTDSDSNASIGMKKYFVGVNSSGKVAISAKEIKEDNIGAQVLGLFTLSTGQDIWNQTN

>  <readout_value>
147

$$$$
>  <protein>
PRT-144 (protein) MANQEIRYSEVTPYHITSVWTKGVTPPANFTQGEDVFHAPYVANQGWYDITKTFNGKDDLLCGAATAGNMLHWWFDQNKDQIKRYLEEHPEKQKINFNGEQMFDVKEAIDTKNHQLDSKLFEYFKEKAFPYLSTKHLGVFPDHVIDMFINGYRLSLTNHGPTPVKEGSKDPRGGIFDAVFTRGDQSKLLTSRHDFKEKTLNDISQLIKQELQSGKALGLSHTYANVRINHVINLWGADFDAEGNLEAIYVTDSDSNASIGMKKYFVGKNSAGKVAISAKEIKEDNIGAQVLGLFTLSTGQDSWNQTN

>  <readout_value>
0

$$$$
>  <protein>
PRT-163 (protein) MANQEIRYSEVTPYHVTSVWTKGVTPPANFTQGEDVFHAPYVANQGWYDITKTFNGKDDLLCGAATAGNMLHWWFDQNKDQIKRYLEEHPEKQKINFNGEQMFDVKEAIDTKNDQTNSELFNYFKEKAFPYLSTKHLGVFPDHVIDMFINGYRLSLTNHGPTPVKEGSKDPRGGIFDAVFTRGDQSKLLTSRHDFKEKNLKEISDLIKKELTEGKALGLSHTYANVRINHVINLWGADFDSNGNLKAIYVTDSDSNASIGMKKYFVGVNSAGKVAISAKEIKEDNIGAQVLGLFTLSTGQDSWNQTN

>  <readout_value>
29

$$$$
>  <protein>
PRT-282 (protein) MVTSVWTKGVTPPAKFTQGEDVFHAPYVANQGWYDITKTFNGKDDLLCGAATAGNMLHWWFDQNKEKIEAYLKKHPDKQKIMFGDQELLDVRKVINTKGDQTNSELFNYFRDKAFPNLSARRIGVMPDLVLDMFINGYYLNVYKTQTTDVNRTYQEKDRRGGIFDAVFTRGDQSKLLTSRHDFKEKNLKEISDLIKKELTEGKALGLSHTYANVRLNHVINLWGADFDSNGNLKAIYVTDSDSNASIGMKKYFVGVNSSGKVAISAKEIKEDNIGAQVLGLFTLSTGQDSWNQTN

>  <readout_value>
34

$$$$
